All values here come from PubChem BioAssay AID617.

test system: E. coli BW25113 ΔtolC growth inhibition, OD615; experiment: growth inhibitors of E. coli tolC mutant, dose response, strain BW25113 ΔtolC::kan (AID 617);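 further: growth read after 20 h at 37 °C with compound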
Property label: pIC50
# pIC50: negative log10 of molar concentration; output just the value

Determine its reported pIC50: `CCCCCCn1c2c(c(=N)c3c1CCC3)CCC2`
4.99

Determine its reported pIC50: `CC1=CC(C)(C)N(C(=O)c2ccc(F)cc2)c2cc3c(cc21)OCO3`
4.90

Determine its reported pIC50: `Cc1ccc(C)c(N2CCN(C(=O)c3ccc(NS(=O)(=O)c4c(C)noc4C)cc3)CC2)c1`
4.87

Determine its reported pIC50: `CCOC(=O)C1CCN(C(=O)c2oc3ccc(S(=O)(=O)N4CCCCCC4)cc3c2C)CC1`
4.67

Determine its reported pIC50: `COC(=O)c1[nH]c2ccc(C)cc2c1NS(=O)(=O)c1ccc(F)c(C)c1`
5.76

Determine its reported pIC50: `COc1ccc2nc(SCC(=O)N(C)C3CCCCC3)c(C#N)cc2c1`
4.80

Determine its reported pIC50: CC(C)C1O/C(=N/C(=O)Nc2ccc(Cl)c(Cl)c2)NC1=O (configuration not stated)
5.68

###

test system: E. coli BW25113 ΔtolC growth inhibition, OD615; test: growth inhibitors of E. coli tolC mutant, dose response, strain BW25113 ΔtolC::kan (AID 617);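 further: growth read after 20 h at 37 °C with compound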
Answer each item with its documented IC50.

Determine its reported IC50: `N#Cc1nc(COc2ccc(F)cc2)oc1N1CCN(Cc2ccccc2)CC1`
14.4 µM

Determine its reported IC50: `O=C(CN(C(=O)CNC(=O)c1ccco1)c1ccc(Cl)c(Cl)c1)NC1CCCCC1`
28.1 µM

Determine its reported IC50: `CCOC(=O)c1cccc(NC(=O)c2cc3sccc3n2C)c1`
9.82 µM

Determine its reported IC50: `COc1cccc(-c2nnc(NC(=O)c3ccc(S(=O)(=O)N4CCOCC4)cc3)o2)c1`
0.99 µM

Determine its reported IC50: `CCOC(=O)Cc1csc(NC(=O)c2csc3c2CCCC3)n1`
16.4 µM

###

system: E. coli BW25113 ΔtolC growth inhibition, OD615; assay: growth inhibitors of E. coli tolC mutant, dose response, strain BW25113 ΔtolC::kan (AID 617);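 further: growth read after 20 h at 37 °C with compound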
Property label: IC50

Determine its reported IC50: `Cc1nc2nc(COc3ccccc3)[nH]n2c(=O)c1Cc1ccccc1`
1.32 µM

Determine its reported IC50: `C=CCNc1ncnc2c1[nH]c1ccc(C)cc12`
2.38 µM

Determine its reported IC50: `CC(C)(C)c1ccc(OCc2nc(-c3ccccn3)no2)c(Br)c1`
6.81 µM

Determine its reported IC50: `O=C(Nc1ccccc1)Nc1ccc(S(=O)(=O)N2CCCCC2)cc1`
10.3 µM

Determine its reported IC50: `CCCCCC/C(=N/O)c1ccccn1`
3.15 µM

Determine its reported IC50: `c1ccc(-c2oc3ncnc(NCCN4CCOCC4)c3c2-c2ccccc2)cc1`
11.8 µM

###

tested on: E. coli BW25113 ΔtolC growth inhibition, OD615; test: growth inhibitors of E. coli tolC mutant, dose response, strain BW25113 ΔtolC::kan (AID 617);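 further: growth read after 20 h at 37 °C with compound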
Property label: IC50

Determine its reported IC50: `COCc1nnc(NC(=O)c2ccc(S(=O)(=O)N(C)c3ccccc3)cc2)o1`
6.56 µM

Determine its reported IC50: `O=c1[nH]c2ccc(S(=O)(=O)N3CCN(c4ccccc4F)CC3)cc2s1`
57 µM

Determine its reported IC50: `Clc1ccc2[nH]c3c(c2c1)CCc1cn[nH]c1-3`
6.49 µM

Determine its reported IC50: `Cc1ccnc(N2CCC(C(=O)Nc3cccc(C(F)(F)F)c3)CC2)n1`
82.2 µM

Determine its reported IC50: `N#Cc1nc(COc2ccc(Cl)cc2)oc1N1CCCCCC1`
8.68 µM

Determine its reported IC50: `CCCCCCC(=O)N1CCC(c2nc3c(nnn3Cc3ccccc3Cl)c(=O)[nH]2)CC1`
6.36 µM

Determine its reported IC50: `c1ccc2c(c1)CCN(c1nc3cc4c(cc3s1)OCCO4)C2`
14.8 µM

Determine its reported IC50: `Cc1ccc(OCc2nc(C#N)c(N3CCN(Cc4ccccc4)CC3)o2)cc1`
12.9 µM

Determine its reported IC50: `CC(=O)OCC1=C(C(=O)O)N2C(=O)[C@@H](NC(=O)Cc3cccs3)[C@H]2SC1`
1.01 µM

Determine its reported IC50: `Cc1nn(-c2ccccc2)c2sc(-c3n[nH]c(=S)o3)cc12`
4.43 µM

Determine its reported IC50: COc1ccc2nc(NC(=O)C3COc4ccccc4O3)sc2c1 (stereo unspecified)
14.5 µM

Determine its reported IC50: `c1ccc(-c2noc(-c3cccc4ccccc34)n2)cc1`
101 µM

Determine its reported IC50: `COc1ccc(-c2cc(C(=O)N3CCCc4ccccc43)no2)cc1`
20.5 µM

Determine its reported IC50: `CCOC(=O)Cc1c(C)nc2c(-c3ccc(Cl)cc3)c[nH]n2c1=O`
2.11 µM

Determine its reported IC50: `CC1CCN(S(=O)(=O)c2cccc(C(=O)NCc3cccs3)c2)CC1`
33.4 µM

Determine its reported IC50: `O=C(Nc1ccccc1N1CCCCC1)c1cccc(F)c1`
15.2 µM

###

Answer each item with its documented pIC50.
system: E. coli BW25113 ΔtolC growth inhibition, OD615; assay: growth inhibitors of E. coli tolC mutant, dose response, strain BW25113 ΔtolC::kan (AID 617);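 further: growth read after 20 h at 37 °C with compound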
# pIC50: negative log10 of molar concentration; output just the value

Give measured pIC50 for `Cc1nc2ccc(C(C(F)(F)F)(C(F)(F)F)C(F)(F)F)cc2[nH]1` (E. coli BW25113 ΔtolC growth inhibition, OD615).
4.48

Give measured pIC50 for `Cc1cccc(Nc2nc(NCc3ccco3)nc(N3CCOCC3)n2)c1` (E. coli BW25113 ΔtolC growth inhibition, OD615).
5.00

Give measured pIC50 for `CCOC(=O)c1cnc(-n2nc(C)cc2C)nc1N(CC)CC` (E. coli BW25113 ΔtolC growth inhibition, OD615).
4.91

Give measured pIC50 for `O=C(NCCc1ccccc1)c1nc2c(nnn2Cc2ccccc2Cl)c(=O)[nH]1` (E. coli BW25113 ΔtolC growth inhibition, OD615).
5.33

Give measured pIC50 for `Cc1ccc(C)n1-n1cnc2sc(-c3ccccc3)cc2c1=O` (E. coli BW25113 ΔtolC growth inhibition, OD615).
5.15

Give measured pIC50 for `CCSc1nnc(NC(=O)c2ccccn2)s1` (E. coli BW25113 ΔtolC growth inhibition, OD615).
5.33

Give measured pIC50 for `Cc1ccc(SCC(=O)N(Cc2nc(-c3ccccc3)no2)C(C)C)cc1` (E. coli BW25113 ΔtolC growth inhibition, OD615).
4.96

Give measured pIC50 for `Cc1ccc(C(C)C)c(Oc2nnnn2-c2ccccc2)c1` (E. coli BW25113 ΔtolC growth inhibition, OD615).
4.83

Give measured pIC50 for `N#CCSc1n[nH]c2nc3c(c(=O)n12)C1(CCCC1)Cc1ccccc1-3` (E. coli BW25113 ΔtolC growth inhibition, OD615).
5.38

Give measured pIC50 for `O=C(Nc1ccc(N2CCN(C(=O)c3ccco3)CC2)c(Cl)c1)c1cccs1` (E. coli BW25113 ΔtolC growth inhibition, OD615).
4.91

Give measured pIC50 for `COc1ccccc1N1CCN(C(=O)c2cc(-c3ccc(C)cc3)on2)CC1` (E. coli BW25113 ΔtolC growth inhibition, OD615).
5.11

Give measured pIC50 for O=C(NCc1ccco1)c1cnn2c1NC(c1ccc(Br)cc1)CC2C(F)(F)F (configuration not stated) (E. coli BW25113 ΔtolC growth inhibition, OD615).
4.89

Give measured pIC50 for `Cc1ccccc1OCCCN1C(=O)C(=O)c2cccc(C)c21` (E. coli BW25113 ΔtolC growth inhibition, OD615).
3.99

Give measured pIC50 for `CCc1nc2ccccc2c(=O)n1NC(=O)c1c(O)c2cccc3c2n(c1=O)CCC3` (E. coli BW25113 ΔtolC growth inhibition, OD615).
4.91

Give measured pIC50 for `C=C(C)COc1ccc(-c2[nH]ncc2Oc2cccc(OC)c2)c(O)c1` (E. coli BW25113 ΔtolC growth inhibition, OD615).
5.22

Give measured pIC50 for `CCCSc1oc(-c2ccco2)nc1S(=O)(=O)c1ccccc1` (E. coli BW25113 ΔtolC growth inhibition, OD615).
5.01

Give measured pIC50 for `Cc1oc2c(CN3CCOCC3)c(O)ccc2c(=O)c1-c1ccc(Br)cc1` (E. coli BW25113 ΔtolC growth inhibition, OD615).
5.55

Give measured pIC50 for `COc1ccc(-c2nnc(SCc3cc(C)cc(C)c3)o2)cc1` (E. coli BW25113 ΔtolC growth inhibition, OD615).
5.17

Give measured pIC50 for `C=C(C)COc1ccc(-c2n[nH]c(C)c2-c2ccccc2OC)c(O)c1` (E. coli BW25113 ΔtolC growth inhibition, OD615).
4.87

Give measured pIC50 for `Cc1cc(C)c(O)c(-c2cc(C(=O)Nc3ccc(S(=O)(=O)N4CCOCC4)cc3)[nH]n2)c1` (E. coli BW25113 ΔtolC growth inhibition, OD615).
5.22

Give measured pIC50 for `O=C(OC1CCCCC1)c1ccc(NC(=O)c2ccco2)cc1` (E. coli BW25113 ΔtolC growth inhibition, OD615).
5.22

Give measured pIC50 for `CCOc1ccc(N(CC(=O)Nc2ccc(C)c(C)c2)S(=O)(=O)c2c(C)noc2C)cc1` (E. coli BW25113 ΔtolC growth inhibition, OD615).
4.81
